# target-or-test-system: T1, human PCSK9 (self-cleaved, mature, secreted PCSK9 comprising amino acids 31 to 692 of SEQ ID NO: 2) (human, UniProt Q8NBP7 31-692, biotinylated in the ELISAs)
# T1 construct: Limits 31-692 are stated for the immunogen; the assays only say human PCSK9; also called huPCSK9; rhu PCSK9
# experimental-protocol: SPR pH 5.5
Hi there, I'd appreciate the recorded estimated complex half life pH 5.5 for every entry that follows.
Note: unit s is implicit; provide only the numeric part.

[in] Please report the measured estimated complex half life pH 5.5 for SS-15141 (antibody, V domains shown, 31H4 His variant: HC 73(63), 132(106), parental(113H)) VH: EVQLVESGGGLVKPGGSLRLSCAASGFTFSSYSMNWVRQAPGKGLEWVSSISSSSSYISYADHVKGRFTISRDNAKNSLYLQMNSLRAEDTAVYFCARDYDFHSAHYDAFDVWGQGTMVTVSS VL: ESVLTQPPSVSGAPGQRVTISCTGSSSNIGAGYDVHWYQQLPGTAPKLLISGNSNRPSGVPDRFSGSKSGTSASLAITGLQAEDEADYYCQSYDSSLSGSVFGGGTKLTVLG
[out] 100

[in] Please report the measured estimated complex half life pH 5.5 for SS-15132 (antibody, V domains shown, 31H4 His variant: HC 68(58), 132(106), parental(113H)) VH: EVQLVESGGGLVKPGGSLRLSCAASGFTFSSYSMNWVRQAPGKGLEWVSSISSSSSYHSYADSVKGRFTISRDNAKNSLYLQMNSLRAEDTAVYFCARDYDFHSAHYDAFDVWGQGTMVTVSS VL: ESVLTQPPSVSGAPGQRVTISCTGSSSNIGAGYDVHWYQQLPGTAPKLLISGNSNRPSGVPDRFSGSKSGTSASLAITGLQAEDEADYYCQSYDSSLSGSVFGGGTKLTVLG
[out] 20

[in] Please report the measured estimated complex half life pH 5.5 for SS-15126 (antibody, V domains shown, 31H4 His variant: HC 66(56), 73(63), parental(113H)) VH: EVQLVESGGGLVKPGGSLRLSCAASGFTFSSYSMNWVRQAPGKGLEWVSSISSSSHYISYADHVKGRFTISRDNAKNSLYLQMNSLRAEDTAVYFCARDYDFHSAYYDAFDVWGQGTMVTVSS VL: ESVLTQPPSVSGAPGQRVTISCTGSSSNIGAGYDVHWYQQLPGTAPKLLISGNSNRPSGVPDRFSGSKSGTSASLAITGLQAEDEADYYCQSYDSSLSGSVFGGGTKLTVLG
[out] 100
